Experiment: Revised Biochemical Assay: Compounds of the invention may be tested for in vitro activity in the following assay: A histone H4 derived peptide is used as substrate (amino acid sequence: […]N H2). Full-length PRMT5 enzyme (NCBI Reference sequence NP_006100.2) was co-expressed with His6-MEP50 in insect cells and purified via Nickel immobilized metal affinity and gel filtration chromatography (the enzyme).The 6 μL reactions are run in Greiner brand black 384-well low volume assay plates. All reactions contained assay buffer (phosphate buffered saline, 0.01% (v/v) Tween-20, 0.01% (w/v) albumin from chicken egg white, 1 mM Dithiothreitol, 1 μM peptide substrate, 1 μM S-Adenosyl methionine, and 15 ng/reaction enzyme, with the enzyme being omitted from negative control reactions. Compounds were added in a volume of 100 nL from dilution series prepared in DMSO, positive and negative control reactions receiving the same volume DMSO without compound. The plates were sealed with adhesive seals and incubated for 4 hours at 37 degree Celsius. Reaction progress was measured using the Transcreener EPIGEN methyltransferase assay (BellBrook Labs, Madison, Wis.) as recommended by the manufacturer. To each reaction 2 μL detection mix were added, containing coupling enzymes, fluorescence polarisation tracer, and AMP antibody. Plates were incubated for 90 minutes before being read on a PerkinElmer EnVision plate reader in fluorescence polarisation mode.
Property: pIC50; scope: individual molecules
Please express pIC50 as -log10 of the molar concentration.

Query :: Please look up its pIC50: "O=C(NC[C@@H](O)[C@@H]1Cc2ccccc2CN1)c1ccc2[nH]ncc2c1"
Result :: 5.56

Query :: Please look up its pIC50: "Cc1ccc(C(=O)NC[C@@H](O)[C@@H]2Cc3ccccc3CN2)cn1"
Result :: 5.33

Query :: Please look up its pIC50: COC(=O)N1[C@@H]2CC[C@H]1CC(Oc1cc(C(=O)NC[C@@H](O)[C@@H]3Cc4ccccc4CN3)ccn1)C2 (stereo partly drawn)
Result :: 7.42
